Target: UniProtKB P56450
pKi: −log10 of the molar value.
readout-kind: pKi

molecule="CC(C)C[C@@H]1CNC(=N)N1C[C@@H]1CCCN1C[C@@H](Cc1ccccc1)N1C[C@@H]([C@@H](C)O)N(CC2CCC(C(C)(C)C)CC2)C1=N (stereo partly shown)" readout_kind=pKi measured_value=7.00

* * *

List of pEC50 values.
Target: mMC5R (Mus musculus, UniProt P41149)
Sequence (P41149 whole entry): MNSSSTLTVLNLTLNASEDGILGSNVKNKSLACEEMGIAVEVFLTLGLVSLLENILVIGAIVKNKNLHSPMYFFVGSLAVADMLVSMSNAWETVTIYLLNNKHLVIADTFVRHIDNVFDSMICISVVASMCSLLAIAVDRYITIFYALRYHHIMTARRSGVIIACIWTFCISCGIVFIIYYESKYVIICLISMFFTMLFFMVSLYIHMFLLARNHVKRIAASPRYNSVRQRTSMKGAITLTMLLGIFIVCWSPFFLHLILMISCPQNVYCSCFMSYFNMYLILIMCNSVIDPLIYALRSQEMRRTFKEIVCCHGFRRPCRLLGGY
Test: cAMP based functional bioassay (CRE/β-galactosidase reporter), agonist activity at mMC5R
pEC50: −log10 of the molar value.
readout-kind: pEC50

compound="CC(C)C[C@@H]1CNC(=N)N1C[C@@H]1CCCN1C[C@@H](CC1CCCCC1)N1C[C@@H]([C@@H](C)O)N(CC2CCC(C(C)(C)C)CC2)C1=N (some centres unmarked) [TPI 2509-5]" target_desc="mMC5R (Mus musculus, UniProt P41149)" measured_value=6.85
compound="CCC[C@@H]1CN([C@H](CC2CCCCC2)CN2CCC[C@H]2CN2C(=N)NC[C@H]2C(C)C)C(=N)N1CC12CC3CC(CC(C3)C1)C2 [TPI 2509-25]" target_desc="mMC5R (Mus musculus, UniProt P41149)" measured_value=6.23
compound="CCC[C@@H]1CN([C@H](CC2CCCCC2)CN2CCC[C@H]2CN2C(=N)NC[C@H]2CC(C)C)C(=N)N1CC1CCC(C(C)(C)C)CC1 (some centres unmarked) [TPI 2509-8]" target_desc="mMC5R (Mus musculus, UniProt P41149)" measured_value=6.28
compound="CC[C@H](C)[C@@H]1CNC(=N)N1C[C@@H]1CCCN1C[C@@H](Cc1ccccc1)N1CC(Cc2ccc(O)cc2)N(CC2CCC(C(C)(C)C)CC2)C1=N (some centres unmarked) [TPI 2509-40]" target_desc="mMC5R (Mus musculus, UniProt P41149)" measured_value=6.42
compound="CC(C)CCCN1C(=N)N([C@H](CC2CCCCC2)CN2CCC[C@H]2CN2C(=N)NC[C@H]2C(C)C)C[C@H]1C(C)C [TPI 2509-30]" target_desc="mMC5R (Mus musculus, UniProt P41149)" measured_value=5.77

* * *

Target: mMC4R (Mus musculus, UniProt P56450)
Sequence (P56450 whole entry): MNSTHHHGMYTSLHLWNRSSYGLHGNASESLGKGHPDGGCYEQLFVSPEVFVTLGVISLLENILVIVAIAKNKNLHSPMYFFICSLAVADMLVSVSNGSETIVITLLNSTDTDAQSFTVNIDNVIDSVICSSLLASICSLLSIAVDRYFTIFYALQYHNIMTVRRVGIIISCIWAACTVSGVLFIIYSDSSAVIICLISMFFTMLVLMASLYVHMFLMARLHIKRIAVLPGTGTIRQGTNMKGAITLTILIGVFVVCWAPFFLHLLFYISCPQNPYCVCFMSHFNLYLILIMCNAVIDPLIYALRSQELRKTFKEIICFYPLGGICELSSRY
Assay: Schild analysis of antagonist activity at mMC4R
List of Kb values.
readout-kind: Kb

compound="CC(C)[C@@H]1CNC(=N)N1C[C@@H]1CCCN1C[C@@H](Cc1ccccc1)N1C[C@@H]([C@@H](C)O)N(CC2CCC(C(C)(C)C)CC2)C1=N (stereo partly drawn) [TPI 2509-32]" measured_value="316 nM"
compound="CC(C)C[C@@H]1CNC(=N)N1C[C@@H]1CCCN1C[C@@H](CC1CCCCC1)N1C[C@@H]([C@@H](C)O)N(CC23CC4CC(CC(C4)C2)C3)C1=N [TPI 2509-4]" measured_value="3160 nM"
compound="CC(C)C[C@@H]1CNC(=N)N1C[C@@H]1CCCN1C[C@@H](Cc1ccccc1)N1C[C@@H]([C@@H](C)O)N(CC2CCC(C(C)(C)C)CC2)C1=N (stereo partly drawn) [TPI 2509-14]" measured_value="100 nM"
compound="CC(C)[C@@H]1CNC(=N)N1C[C@@H]1CCCN1C[C@@H](Cc1ccccc1)N1C[C@@H]([C@@H](C)O)N(CC23CC4CC(CC(C4)C2)C3)C1=N [TPI 2509-31]" measured_value="1580 nM"
compound="CC(C)C[C@@H]1CNC(=N)N1C[C@@H]1CCCN1C[C@@H](CC1CCCCC1)N1C[C@@H]([C@@H](C)O)N(CC2CCC(C(C)(C)C)CC2)C1=N (stereo partly drawn) [TPI 2509-5]" measured_value="1580 nM"
compound="CCC[C@@H]1CN([C@H](CC2CCCCC2)CN2CCC[C@H]2CN2C(=N)NC[C@H]2C(C)C)C(=N)N1CC1CCC(C(C)(C)C)CC1 (stereo partly drawn) [TPI 2509-26]" measured_value="1580 nM"
compound="CC(C)[C@@H]1CNC(=N)N1C[C@@H]1CCCN1C[C@@H](CC1CCCCC1)N1C[C@@H]([C@@H](C)O)N(CC2CCC(C(C)(C)C)CC2)C1=N (stereo partly drawn) [TPI 2509-23]" measured_value="1260 nM"
compound="CC(C)C[C@@H]1CNC(=N)N1C[C@@H]1CCCN1C[C@@H](Cc1ccccc1)N1C[C@@H]([C@@H](C)O)N(CC23CC4CC(CC(C4)C2)C3)C1=N [TPI 2509-13]" measured_value="2510 nM"
compound="CC(C)[C@@H]1CNC(=N)N1C[C@@H]1CCCN1C[C@@H](CC1CCCCC1)N1C[C@@H]([C@@H](C)O)N(CC23CC4CC(CC(C4)C2)C3)C1=N [TPI 2509-22]" measured_value="1580 nM"
